# System: NOMO1
# Protocol Description: cell viability relative to DMSO control; higher = less cytotoxic
# Measurement Context: RPMI 5 mM glucose + 10% dialyzed FBS; 48 h; 0.569 µM
Listed here: items and their measured cell viability.
Assay Readout: cell viability (%)

| Molecule | Target Desc | Assay Readout | Observed |
| --- | --- | --- | --- |
| CC(=O)Oc1cc2c(s1)CCN(C(C(=O)C1CC1)c1ccccc1F)C2.Cl (stereo unspecified) | NOMO1 | cell viability | 103 |
| CO[C@H]1/C=C/O[C@@]2(C)Oc3c(C)c(O)c4c(O)c(c(/C=N/N5CCN(C)CC5)c(O)c4c3C2=O)NC(=O)/C(C)=C\C=C\[C@H](C)[C@H](O)[C@@H](C)[C@@H](O)[C@@H](C)[C@H](OC(C)=O)[C@@H]1C | NOMO1 | cell viability | 104 |
| CC[C@H](NC(C)C)[C@H](O)c1ccc(O)c2[nH]c(=O)ccc12 | NOMO1 | cell viability | 96.9 |
| CC(=O)OCC(=O)[C@@]12OC(C)(C)O[C@@H]1C[C@H]3[C@@H]4C[C@H](F)C/5=C/C(=O)/C=C\[C@]5(C)[C@@]4(F)[C@@H](O)C[C@]23C | NOMO1 | cell viability | 116 |
| Cc1cc(-c2nnc3n2CCCCC3)c(C)n1-c1ccccc1 | NOMO1 | cell viability | 116 |
| CCc1c(O)cc(O)c(C(=O)c2ccc(OCCN3CCOCC3)c(OC)c2)c1CC(=O)N(CCOC)CCOC | NOMO1 | cell viability | 102 |
| C=CC(=O)Nc1cccc(Oc2nc(Nc3ccc(N4CCN(C)CC4)cc3OC)ncc2Cl)c1 | NOMO1 | cell viability | 77.3 |
| CCCC1=N[N](C)C2=C1\N=C(/NC2=O)C3=CC(=CC=C3OCC)[S+]([O-])(=O)N4CCN(C)CC4 | NOMO1 | cell viability | 82.3 |
| FC(F)(F)C1=CC=C2C(SCCCCCO\C3=C\O\C(CN4CCOCC4)=C/C3=O)=CC=NC2=C1 | NOMO1 | cell viability | 125 |
| CC1=CC=C2\N=C/3N(CC[C@@]3(O)C(=O)C2=C1)C4=CC=CC=C4 | NOMO1 | cell viability | 86.7 |
| CN(c1nccc(=O)[nH]1)C1CCN(c2nc3ccccc3n2Cc2ccc(F)cc2)CC1 | NOMO1 | cell viability | 122 |
| CCN1\C=C(C(O)=O)/C(=O)C2=C1C=C(N3CCN(C)CC3)C(=C2)F | NOMO1 | cell viability | 71.9 |
| FC1=CC=C(CN2\C=C/C=C(/C(=O)N[C@@H](COC3=CC4=C(NC(=O)N4)C=C3)C5=CC=CC=C5)C2=O)C=C1F | NOMO1 | cell viability | 82.3 |
| O=[S+]([O-])(O)c1ccc2cc(/N=N/c3cc([S+](=O)([O-])O)c4cccnc4c3O)ccc2c1 | NOMO1 | cell viability | 121 |
| CN(C)/[N+]([O-])=N/Oc1cc(ON[N+](=O)N2CCN(C(=O)c3cc(Cc4n[nH]c(=O)c5ccccc45)ccc3F)CC2)c([N+](=O)[O-])cc1[N+](=O)[O-] | NOMO1 | cell viability | 103 |
| CCC[C@@H](C=O)NC(=O)[C@H](CC(C)C)NC(=O)[C@H](CC(C)C)NC(=O)OCc1ccccc1 | NOMO1 | cell viability | 132 |
